// data source = patent US11066369B2

Target: horseradish peroxidase (HRP) tagged delF508-CFTR (Homo sapiens, UniProt P13569, DEL508-508)
Construct: expressed in transfected cells
Sequence (P13569 with tags, fused parts or gaps DEL508-508): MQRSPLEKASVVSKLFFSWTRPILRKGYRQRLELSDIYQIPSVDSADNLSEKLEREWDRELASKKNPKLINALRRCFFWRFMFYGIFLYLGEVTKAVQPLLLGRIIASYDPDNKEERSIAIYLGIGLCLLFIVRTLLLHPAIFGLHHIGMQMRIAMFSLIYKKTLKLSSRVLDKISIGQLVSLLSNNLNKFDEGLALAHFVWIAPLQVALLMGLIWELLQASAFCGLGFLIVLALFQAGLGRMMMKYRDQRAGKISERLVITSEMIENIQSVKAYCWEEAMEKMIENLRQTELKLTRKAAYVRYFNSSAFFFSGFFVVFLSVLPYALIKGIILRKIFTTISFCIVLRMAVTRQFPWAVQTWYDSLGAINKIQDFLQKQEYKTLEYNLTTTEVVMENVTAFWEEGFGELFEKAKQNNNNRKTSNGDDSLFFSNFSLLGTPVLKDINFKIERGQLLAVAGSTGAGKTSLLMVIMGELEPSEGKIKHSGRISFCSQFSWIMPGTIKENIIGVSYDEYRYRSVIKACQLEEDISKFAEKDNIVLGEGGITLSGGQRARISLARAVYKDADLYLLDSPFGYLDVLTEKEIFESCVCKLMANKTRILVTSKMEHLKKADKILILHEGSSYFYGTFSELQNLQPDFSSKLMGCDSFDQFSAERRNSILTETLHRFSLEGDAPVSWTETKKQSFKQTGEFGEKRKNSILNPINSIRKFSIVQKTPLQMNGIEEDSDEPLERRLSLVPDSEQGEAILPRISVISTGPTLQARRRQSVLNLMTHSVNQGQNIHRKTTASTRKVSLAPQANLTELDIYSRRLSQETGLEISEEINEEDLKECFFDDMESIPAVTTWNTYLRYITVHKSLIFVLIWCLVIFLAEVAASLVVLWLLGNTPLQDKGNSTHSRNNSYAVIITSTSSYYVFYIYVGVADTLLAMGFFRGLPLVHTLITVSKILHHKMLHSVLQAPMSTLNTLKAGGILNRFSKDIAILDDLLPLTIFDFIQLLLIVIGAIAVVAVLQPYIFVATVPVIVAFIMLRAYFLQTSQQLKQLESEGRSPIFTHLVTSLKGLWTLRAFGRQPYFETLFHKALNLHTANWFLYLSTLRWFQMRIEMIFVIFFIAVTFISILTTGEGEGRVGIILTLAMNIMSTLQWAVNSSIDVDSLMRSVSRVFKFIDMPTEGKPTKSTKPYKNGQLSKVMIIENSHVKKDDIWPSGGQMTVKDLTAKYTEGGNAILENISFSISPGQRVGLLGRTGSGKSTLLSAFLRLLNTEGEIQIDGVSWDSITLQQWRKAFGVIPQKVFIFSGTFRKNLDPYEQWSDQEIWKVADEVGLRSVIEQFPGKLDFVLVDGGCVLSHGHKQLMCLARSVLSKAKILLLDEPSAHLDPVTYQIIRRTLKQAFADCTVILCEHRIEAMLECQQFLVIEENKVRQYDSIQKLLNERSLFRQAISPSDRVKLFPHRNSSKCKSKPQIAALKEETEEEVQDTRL
Experiment: Measurement of delF508-CFTR-HRP surface expression in CFBE41o- cells
Type: cell-based
Conditions: CFBE41o- cells; mean of at least two replicates; read-out: DelF508-CFTR-HRP EC50
Method: Measurement of delF508-CFTR-HRP Surface Expression in CFBE41o-Cells This assay quantifies the cell surface expressions of the mutant CFTR channel using an extracellular HRP tag. […] The median activity for the lowest concentration of the compounds on each assay plate was calculated and this value was used to normalize the signal for each well on the respective plate. […] The median value was determined and used to calculate compound activities as described below. […]
Entries and their pEC50
The read-out pEC50 is expressed as -log10 of concentration in moles per litre.

• CC(C)c1ccccc1-c1nc(NS(=O)(=O)c2cccc(N3CCC[C@](C)(C(=O)O)C3)n2)ccc1C(F)(F)F = 6.09
• O=C(O)[C@]12CC[C@H](O1)[C@H](Nc1cccc(S(=O)(=O)Nc3ccc(C(F)(F)F)c(-c4ccccc4C4CC4)n3)n1)C2 (racemic) = 5.70
• CCCC1(C(=O)O)CCCN(c2cccc(S(=O)(=O)Nc3ccc(Cl)c(-c4ccccc4C)n3)n2)C1 (centres unmarked) = 5.87
• CC(C)COc1ccccc1-c1nc(NS(=O)(=O)c2cccc(N3CCC[C@@](C)(C(=O)O)C3)n2)ccc1C(F)(F)F = 6.07
• CC(C)c1ccccc1-c1nc(NS(=O)(=O)c2cccc(N3CCC[C@@H]4[C@@H](C(=O)O)C[C@@H]43)n2)ccc1C(F)(F)F (racemic) = 5.91
• Cc1ccccc1-c1nc(NS(=O)(=O)c2cccc(N3C[C@H](C(=O)O)CC[C@@H]3C)n2)ccc1C(F)(F)F = 5.61

Now take the following compound into account.
input: Record request: pEC50 value, item CCCC1(C(=O)O)CCCN(c2cccc(S(=O)(=O)Nc3ccc(C(F)(F)F)c(-c4ccccc4C)n3)n2)C1 (centres unmarked)
output: 5.80

###

Target: horseradish peroxidase (HRP) tagged delF508-CFTR (Homo sapiens, UniProt P13569, DEL508-508)
Construct: expressed in transfected cells
Test: Measurement of delF508-CFTR-HRP surface expression in CFBE41o- cells;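 on DelF508-CFTR-HRP Amax %: percent efficacy relative to reference corrector lumacaftor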
Assay type: cell-based
Details: delF508-CFTR-HRP surface expression, CFBE41o- cells; read-out: DelF508-CFTR-HRP Amax %
Where a name gives a salt, the structure may show the parent alone.
Reported endpoint: Emax (%)
Only the number, expressed in %, is required.

* Cc1ccccc1-c1nc(NS(=O)(=O)c2cccc(O[C@@H]3COC[C@@H]3O)n2)ccc1C(F)(F)F (racemic) [Example 291] | 496
* CO[C@H]1CCNC[C@H]1Nc1cccc(S(=O)(=O)Nc2ccc(C(F)(F)F)c(-c3ccccc3C)n2)n1 [Example 106, Hydrochloride] | 912
* O=S(=O)(Nc1ccc(Cl)c(-c2ccccc2Cl)n1)c1cccc(N2CCNCC2)n1 | 178
* O=S(=O)(Nc1ccc(Cl)c(-c2ccccc2C(F)(F)F)n1)c1cccc(N[C@H]2COC[C@@H]2O)n1 | 215
* Cc1ccc(F)cc1-c1nc(NS(=O)(=O)c2cccc(N3CCNCC3)n2)ccc1C(F)(F)F [Example 152, Hydrochloride] | 332

input: What value of Emax has been reported for the following molecule? Cc1cccc(C)c1-c1nc(NS(=O)(=O)c2cccc(N3CCC(NC(=O)OC(C)(C)C)(C(=O)O)CC3)n2)ccc1Cl
output: 103

input: Same question for Cc1cccc(C)c1-c1nc(NS(=O)(=O)c2cccc(N3CCC(O)(C(=O)O)CC3)n2)ccc1Cl please.
output: 22.8
